- assaySystem: T1, human IL-33 (mm2) (human, UniProt O95760 112-270)
- T1 chain: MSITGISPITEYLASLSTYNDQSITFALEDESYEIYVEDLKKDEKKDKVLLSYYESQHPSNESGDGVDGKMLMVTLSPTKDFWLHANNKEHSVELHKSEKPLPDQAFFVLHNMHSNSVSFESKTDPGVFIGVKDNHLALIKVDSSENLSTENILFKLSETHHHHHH
- experimentalProtocol: cell-based or functional assay
endpointName: IC50, HEK293 ST2 NFkB (nM)
Give just the number in nM; leave the unit off.

Solved cases (4 shown):
[[record]]
binder = "14D8 chimera/hu J (antibody, human IgG1, kappa, V domains shown, also called 14D8 huJseg) VH: EVQLVDSGGDQVQPGRSLKLSCVASGFIFKNYWMTWIRQVPGKGLEWIASITNSGGNTYYPDSVKGRFTISRDNAKDTLYLQMNSLRSEDTATYYCARDRRYNSGSPFAYWGQGTLVTVSS VL: DIQLTQSPSTLPASLGERVTISCRTSQSINNNLCWYQQKPDGTVKRLIYSTSTLESGVPSRFSGSGSGTDYSLSISSLESQDFAMYYCLQYATYPWTFGQGTKVEIKR"
reported = 2.03

[[record]]
binder = "rat 30B11 (30B11 hybridoma) (antibody, V domains shown) VH: QVKLLQSGAALVKPGASVKMSCATSGFSFTDYWVSWVKQSHGKGLEWIGEIYPNSGADNFNENFKGKATLTVDKSTSTAYMELSRLTSEDSAIYYCTRGPYYYSTQIIFAYWGQGTLVTVSS VL: NIVMTQSPKSMSISVGDRVTMNCKASQNVGNNLAWYQQKPGQSPKLLIYYASNRYTGVPDRFTGGGYGTDFTLTINSVQAEDAAFYYCQRIYNSPPTFGGGTKVELR"
reported = 0.056

[[record]]
binder = "12F9 chimera (antibody, human IgG1, kappa, V domains shown, also called chimeric 12F9) VH: EVQLVESGGDLVQPGRSLKLSCVTSGFIFKNYWMTWIRQVPGKGLEWVASITNTGGATYYPDSVKGRFTISRDNSENTLYLQMNSLRSEDTATYYCARDRRYNSGSPFAYWGQGTLVTVSS VL: DIQLTQSPSTLAASLGERVTISCRASQSISNSLIWFQQKPDGTIKRLIYSSSTLESGVPSRFSGSGSGTDYSLSISSLESEDFAMYYCLQYATYPWTFGGGTKLELRR"
reported = 2.71

[[record]]
binder = "rat 30A1 (30A1 hybridoma) (antibody, V domains shown) VH: QVNLLQSGATLVKPGASMKMSCKASGYSFTDYWVSWVKQSHGKSLEWIGEIYPNSGANNFNKEFKDKATLTVDKSTSTAYMELTRLTSEDSAVYYCTRGPYYYSSQIIFAYWGQGTLVTVSS VL: IIVMTQSPKSMSISVGDRVTMNCKASQNVGNNIAWYRQKPGQSPELLIYYASNRYTGVPDRFTGGGYGTDFTLTINSVQAEDAAFYYCQRIYNSPPTFGGGTKVELK"
reported = 0.665


Exercise: Sample rat 7E8 (7E8 hybridoma) (antibody, V domains shown) VH: EVQLVETGGGLVQPGRSLKLSCKTSGFTFSSYWMYWIRQAPGKGLEWVSSITPNGGNTYYPDSVKGRFTISRDNAENTIYLQMSSLRSEDTATYFCAKGHYYYTSYSLGYWGQGSLVTVSS VL: EIQMTQSPSVLSASVGDRVTLSCKASQNINKHLDWYQQKLGEAPKLLIYFTNNLQTGIPSRFSGSGSGTDCTLTINSLQPGDVATYFCFQYNNGWTFGGGTKLELD — what was its IC50, HEK293 ST2 NFkB?
Key: 0.018
